The measured values listed here are drawn from patent US20060058374A1.

experimental readout: melting point

q: Consider the molecule COc1cccc2c1CC(CCN(C)C)(c1ccccc1)OC2=O.Cl (centres unmarked) and give its measured melting point.
a: > 250 °C (dec.)

q: Consider the molecule Cc1ccc2c(c1)C(=O)OC(CCN(C)C)(c1ccccc1)C2.Cl (centres unmarked) and give its measured melting point.
a: > 250 °C (dec.)

====

Recorded melting point for the following compounds

Previously resolved entries follow.
1. COc1ccc(C2(CCN(C)C)Cc3ccccc3C(=O)O2)cc1.Cl (stereo not drawn) = > 250 °C (dec.)
2. Cc1cccc2c1CC(CCN(C)C)(c1ccccc1)OC2=O.Cl (stereo not drawn) = > 250 °C (dec.)
3. CN(C)CCC1(c2ccccc2)Cc2ccccc2C(=O)O1.Cl (stereo not drawn) = > 250 °C (dec.)
4. Cl.O=C1OC(CCN2CCCC2)(c2ccc(Cl)cc2)Cc2ccccc21 (stereo not drawn) = > 250 °C (dec.)
5. Cl.O=C1OC(CCN2CCCCC2)(c2ccc(Cl)cc2)Cc2ccccc21 (stereo not drawn) = > 250 °C (dec.)

Now look at this one.
q: Consider the compound CN(C)CCC1(c2cccc(F)c2)Cc2ccccc2C(=O)O1.Cl (stereo not drawn) and give its measured melting point.
a: > 250 °C (dec.)
